Tested on: Notch signalling
Test method notes: Notch reporter assay (12xCSL firefly luciferase / renilla luciferase, HEK293T Notch1ΔE reporter cell line clone #A1-11)
Format: cell-based
Condition summary: Homo sapiens, HEK-293T, 14p Notch assay DR; Notch inhibitor controls, no bottom constraint named; read-out: approximated IC50
Measure: pIC50
Lab note — pIC50 values are minus log10 of concentrations in M.

The molecule listed as CC(C)(C(=O)NCC(F)(F)C(F)(F)F)C(=O)N[C@@H]1C(=O)Nc2ccccc2-c2ccccc21 [RO4929097, reference compound] has a reported pIC50 of 7.66

* * *

Assayed system: γ-secretase complex (Homo sapiens, UniProt P49768)
Test method notes: APP-C99 counter assay (GSI reporter assay)
Assay type: cell-based
Condition summary: 14p dose response; averaged over replicates; read-out: 14p APP counter assay averaged IC50s
Consider the following compounds; for each one, report its IC50.
Record the value in nM, omitting the unit from your answer.

NC(=O)[C@@H](CC1CC1)[C@@H](CCC(F)(F)F)C(=O)N[C@H]1N=C(c2ccccc2)c2cccc(F)c2NC1=O [BMS-983970, reference compound] has a reported IC50 of 57

Lookup result for C[C@H](NC(=O)Cc1cc(F)cc(F)c1)C(=O)N[C@H](C(=O)OC(C)(C)C)c1ccccc1 [DAPT, reference compound] ; measured IC50: 5200

* * *

Test system: Notch signalling
Test method notes: Notch reporter assay (12xCSL firefly luciferase / renilla luciferase, HEK293T Notch1ΔE reporter cell line clone #A1-11)
Type: cell-based
Condition summary: Homo sapiens, HEK-293T; 10 µM, three-dose confirmation screen; unit from Fig. 2 legend; read-out: Hit confirmation at 10 µM (Notch reporter signal)
Measure: activity at 10 µM (%)
Give the value in % but do not write % after it.

Briefly, activity at 10 µM measured for Cc1nn(-c2nc3ccccc3s2)c(O)c1C1OC(=O)c2ccccc21 (centres unmarked) [compound E] : 38

# activity at 10 µM (compound: O=C(Nc1nnc(-c2ccc3c(c2)OCCO3)o1)c1ccccc1F [CBK287405] ) is 44

The recorded activity at 10 µM for NC(=O)c1c(NC(=O)NCc2cccnc2)sc2c1CCC2 [compound D] is 47

Note to self: activity at 10 µM recorded for Cc1[nH]c2cccc(C(=O)N3CCCCC3CCNC(=O)c3ccccc3)c2c1C (centres unmarked) [CBK285976] was 54.9

Memo: COc1cc(Nc2nc(-c3cccc(NC(C)=O)c3)cn3ccnc23)cc(OC)c1OC [CBK038093] , reported activity at 10 µM: 56.1

Data point: CC1CCc2c(sc3ncnc(NCCCN4CCCCCC4=O)c23)C1 (centres unmarked) [CBK305947] ; activity at 10 µM = 66.5

Per the records, this compound ( CCc1c(C(=O)N(C)Cc2cnn(C(C)C)c2)[nH]c2ccccc12 [compound A] ) has activity at 10 µM equal to 27.7

// recorded activity at 10 µM for COc1ccc(C(=O)N2Cc3nc[nH]c3C[C@H]2c2nc(-c3ccc(OC)cc3)no2)cc1 [CBK288966] : 58.5

activity at 10 µM measured on CC(=O)Oc1cccc(N2C(=O)c3ccc(Oc4cccc(N)c4)cc3C2=O)c1 [CBK261099] = 28.1

Record COc1cccc(CNc2ccc(N3CCOCC3)cc2)c1OCc1ccccc1F [CBK074406] , field activity at 10 µM: 68

Measured activity at 10 µM, CC(=O)N1CCc2sccc2C1c1ccccc1NCc1ccoc1 (centres unmarked) [CBK286432] : 57.2
